Biological target: T1, murine CD22 protein (ACROBiosystems, SI2-M52Ha) (murine, UniProt P35329 22-708)
T1 construct: extracellular domain; also called murine CD22-ECD; murine CD22-ECD-His
T1 sequence (looked up): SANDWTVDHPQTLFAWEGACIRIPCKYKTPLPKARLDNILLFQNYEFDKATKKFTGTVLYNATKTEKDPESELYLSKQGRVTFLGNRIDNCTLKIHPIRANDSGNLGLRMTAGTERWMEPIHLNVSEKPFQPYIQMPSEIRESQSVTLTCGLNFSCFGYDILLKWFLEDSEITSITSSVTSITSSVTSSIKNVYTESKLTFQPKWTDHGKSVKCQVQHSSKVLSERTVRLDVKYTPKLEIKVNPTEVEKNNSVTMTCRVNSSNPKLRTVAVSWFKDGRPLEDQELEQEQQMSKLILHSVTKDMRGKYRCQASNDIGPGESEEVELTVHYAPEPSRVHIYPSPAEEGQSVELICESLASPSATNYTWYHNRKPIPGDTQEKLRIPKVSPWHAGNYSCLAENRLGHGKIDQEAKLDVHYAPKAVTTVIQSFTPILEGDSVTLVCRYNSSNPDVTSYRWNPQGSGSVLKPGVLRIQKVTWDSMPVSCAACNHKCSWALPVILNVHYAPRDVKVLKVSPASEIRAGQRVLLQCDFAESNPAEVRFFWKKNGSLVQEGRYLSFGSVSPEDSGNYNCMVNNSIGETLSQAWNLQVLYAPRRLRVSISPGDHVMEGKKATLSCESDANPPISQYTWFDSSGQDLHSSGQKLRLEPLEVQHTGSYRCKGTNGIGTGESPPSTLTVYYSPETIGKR
Assay: ELISA, coated murine CD22, 10 nM Ab
value.kind: OD450
Write down the value, and be sure its unit follows.

Exercise: What value of measured OD450 is listed for F1.161.7 human-murine chimeric antibody (antibody, human IgG1, kappa, V domains shown, Chimeric, human IgG1 / kappa) VH: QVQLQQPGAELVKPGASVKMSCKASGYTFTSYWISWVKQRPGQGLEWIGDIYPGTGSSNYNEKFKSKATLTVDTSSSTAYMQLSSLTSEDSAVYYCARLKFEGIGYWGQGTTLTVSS VL: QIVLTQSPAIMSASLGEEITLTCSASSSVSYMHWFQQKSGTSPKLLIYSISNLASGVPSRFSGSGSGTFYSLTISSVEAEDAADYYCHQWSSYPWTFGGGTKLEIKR ?
Solution: 0.06 OD450

Exercise: Then what about the binder F2.343.16 human-murine chimeric antibody (antibody, human IgG1, lambda, V domains shown, Chimeric, human IgG1 / lambda; VL tied by name) VH: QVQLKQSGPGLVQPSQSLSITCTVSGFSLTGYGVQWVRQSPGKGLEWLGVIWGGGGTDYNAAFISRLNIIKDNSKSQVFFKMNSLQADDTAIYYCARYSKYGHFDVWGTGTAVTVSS VL: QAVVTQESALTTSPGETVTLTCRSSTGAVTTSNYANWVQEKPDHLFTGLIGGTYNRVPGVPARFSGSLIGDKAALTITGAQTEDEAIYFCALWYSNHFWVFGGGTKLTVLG ?
Solution: 0.06 OD450
